The reader will find reported pKd values listed item by item below.
target: human Hsp90α N-terminal domain (Homo sapiens, UniProt P07900)
pKd: −log10 of the molar value.
Endpoint label: pKd

Molecule | Experimental target | Endpoint label | Obs value
CC(C)(C)Cc1cccc(-c2cc(Cl)nc(N)n2)c1Cl [Example 72] | human Hsp90α N-terminal domain (Homo sapiens, UniProt P07900) | pKd | > 6.00
COc1cc(-c2cc(Cl)nc(N)n2)c(Cl)cc1Cl [Example 61] | human Hsp90α N-terminal domain (Homo sapiens, UniProt P07900) | pKd | > 6.00
COc1cccc(OC)c1-c1cc(C)nc(N)n1 [Example 1] | human Hsp90α N-terminal domain (Homo sapiens, UniProt P07900) | pKd | > 5.00
NC(=O)COc1cc(-c2cc(Cl)nc(N)n2)c(Cl)cc1Cl [Example 81] | human Hsp90α N-terminal domain (Homo sapiens, UniProt P07900) | pKd | > 6.00
Nc1nccc(-c2ccc(Cl)cc2Cl)n1 [Example 60] | human Hsp90α N-terminal domain (Homo sapiens, UniProt P07900) | pKd | > 5.00
COc1ccc(-c2cc(Cl)nc(N)n2)c(Cl)c1 [Example 73] | human Hsp90α N-terminal domain (Homo sapiens, UniProt P07900) | pKd | > 6.00
CC(C)(C)OC(=O)NCCCOc1cccc(Cl)c1-c1cc(Cl)nc(N)n1 [Example 53] | human Hsp90α N-terminal domain (Homo sapiens, UniProt P07900) | pKd | > 6.00
NCCOc1cccc(Cl)c1-c1cc(Cl)nc(N)n1 [Example 56] | human Hsp90α N-terminal domain (Homo sapiens, UniProt P07900) | pKd | > 6.00
COc1cc(Cl)cc(Cl)c1-c1cc(Cl)nc(N)n1 [Example 59] | human Hsp90α N-terminal domain (Homo sapiens, UniProt P07900) | pKd | > 6.00
COc1cccc(-c2cc(Cl)nc(N)n2)c1OC [Example 70] | human Hsp90α N-terminal domain (Homo sapiens, UniProt P07900) | pKd | > 6.00
COc1cccc(OC)c1-c1cc(Cl)nc(N)n1 [Example 4] | human Hsp90α N-terminal domain (Homo sapiens, UniProt P07900) | pKd | > 6.00
COc1cccc(OCCN2CCOCC2)c1-c1cc(Cl)nc(N)n1 [Example 48] | human Hsp90α N-terminal domain (Homo sapiens, UniProt P07900) | pKd | > 6.00
COc1cccc(-c2cc(Cl)nc(N)n2)c1Cl [Example 69] | human Hsp90α N-terminal domain (Homo sapiens, UniProt P07900) | pKd | > 6.00
COc1cc(OC)c(-c2cc(Cl)nc(N)n2)c(OC)c1 [Example 27] | human Hsp90α N-terminal domain (Homo sapiens, UniProt P07900) | pKd | > 6.00
COc1cccc(OCC2CCOCC2)c1-c1cc(Cl)nc(N)n1 [Example 21] | human Hsp90α N-terminal domain (Homo sapiens, UniProt P07900) | pKd | > 6.00
CCOC(=O)COc1ccc(-c2cc(Cl)nc(N)n2)c(Cl)c1 [Example 66] | human Hsp90α N-terminal domain (Homo sapiens, UniProt P07900) | pKd | > 6.00
COc1c(CC(C)(C)C)cccc1-c1cc(Cl)nc(N)n1 [Example 71] | human Hsp90α N-terminal domain (Homo sapiens, UniProt P07900) | pKd | > 6.00
CN(C)CCOc1ccc(-c2cc(Cl)nc(N)n2)c(Cl)c1 [Example 74] | human Hsp90α N-terminal domain (Homo sapiens, UniProt P07900) | pKd | > 5.00
